Where do these numbers come from? They come from PubChem BioAssay (NCI).

TGI overview
# Test system: SK-MEL-28 melanoma
# Test Protocol: NCI tumour cell line growth inhibition, 48 h
Measured Quantity: TGI

INSERT INTO assay_data (compound, measured_quantity, reading) VALUES
  ('CN1CCN(C2CC(=O)c3c(Cl)sc(Cl)c32)CC1 (stereo not given)', 'TGI', '20.2 µM'),
  ('CC1CCCc2c(CC3CC(=O)NC(=O)C3)nc(N)nc21 (stereo not given)', 'TGI', '> 100 µM'),
  ('C(=N\Nc1nnc(-c2nnc(N/N=C/c3ccccc3)o2)o1)/c1ccccc1', 'TGI', '> 10 µM'),
  ('CCN(CC)CCn1nc2c3c(cccc3c1=O)-c1ccccc1-2', 'TGI', '15.6 µM'),
  ('CCCN(CCC)c1c([N+](=O)[O-])cc(C(N)=O)cc1[N+](=O)[O-]', 'TGI', '> 100 µM'),
  ('CC(=O)[O-].CC(=O)[O-].CC(=O)[O-].CC(=O)[O-].CO.CO.CO.[Rh+2].[Rh+2].c1ccc(-c2ccccn2)nc1', 'TGI', '> 100 µM'),
  ('O=C1CCc2c(sc3ncnc(Nc4cccc(Br)c4)c23)C1', 'TGI', '52.6 µM'),
  ('C=C1C(=O)O[C@H]2[C@H]1CC/C(COC(=O)c1ccc(Br)cc1)=C\CC[C@@]1(C)O[C@@H]21', 'TGI', '3.39 µM'),
  ('O=C(N(C1=CCCC1)N(c1ccccc1)c1ccccc1)C(F)(F)F', 'TGI', '> 100 µM'),
  ('CC1(C)CC(=O)C=C(NC(=O)c2ccccc2)C1', 'TGI', '> 100 µM');
